Attribution: PubChem BioAssay (NCATS)

# Test system: CP297
# assay-text: qHTS profiling for inhibitors of Plasmodium falciparum proliferation (AID 504749); note: nearly all actives have a fitted effect of over 60% in size
# experimental-setup: P. falciparum in erythrocytes, SYBR Green DNA, 72 h; series mostly up to 28.7 µM
Records with an inconclusive call do not appear. Active and inactive are the calls of the source. Calls come from the whole dose curve; as a rule, active = well fitted inhibition curve with a large enough effect; inconclusive = small, poorly fitted or top-dose-only effect; inactive = flat fitted curve, though single readings scatter.
Labels: active, inactive

compound="OCC(CO)NC1C[C@](O)(CO)[C@@H](O)[C@H](O)[C@H]1O (stereo partly drawn)" assigned_category=inactive
compound="C[C@]12CC[C@@H]3c4ccc(O)cc4CC[C@H]3[C@@H]1C[C@H](O)C2O (stereo partly drawn)" assigned_category=inactive
compound="CCC(C)C(N)C(=O)O (stereo not drawn)" assigned_category=inactive
compound="C[C@]12CC[C@@H]3c4ccc(O)cc4C[C@@H](CCCCCCCCCS(=O)CCCC(F)(F)C(F)(F)F)C3[C@@H]1CC[C@@H]2O (stereo partly drawn)" assigned_category=active
compound="C=CCn1c(=O)n(C2OC(CO)C(O)C2O)c2nc(N)[nH]c(=O)c21 (stereo not drawn)" assigned_category=inactive
compound=C/C(=C(/CCO)SS/C(CCO)=C(\C)N(C=O)Cc1cnc(C)nc1N)N(C=O)Cc1cnc(C)nc1N assigned_category=inactive
compound="CC(=O)N1CC(O)CC1C(=O)O (stereo not drawn)" assigned_category=inactive
compound=CCCC[C@H](O)c1ccccc1 assigned_category=inactive
compound=C[C@@H](O)[C@@H]1C(=O)N2C(C(=O)O)=C([C@H]3CCCO3)S[C@H]12 assigned_category=inactive
compound=C=C1[C@@H]2CC[C@H](C2)C1(C)C assigned_category=inactive
compound=C[C@@H]1CCN(C(=O)[C@H](CCCNC(=N)N)NS(=O)(=O)c2cccc3c2NC[C@H](C)C3)[C@@H](C(=O)O)C1 assigned_category=inactive
compound=C=C1N[C@]2(C(=O)COC(C)=O)[C@@H](C[C@H]3[C@@H]4CCC5=CC(=O)C=C[C@]5(C)[C@H]4[C@@H](O)C[C@@]32C)O1 assigned_category=inactive
compound="CC1OC(OC2CCC3(C)C(CCC4C3CC(O)C3(C)C(C5=CC(=O)OC5)CCC43O)C2)CC(O)C1OC1CC(O)C(OC2CC(O)C(OC3OC(CO)C(O)C(O)C3O)C(C)O2)C(C)O1 (stereo not drawn)" assigned_category=inactive
compound="CN1[C@H]2CC(OC(=O)[C@H](CO)c3ccccc3)C[C@H]1[C@H]1O[C@H]12 (stereo partly drawn)" assigned_category=inactive
compound="C[C@H]1OC(OC2C(O)[C@@H](O)C(OC3C(O)[C@@H](O)C(O)O[C@@H]3CO)O[C@@H]2CO)[C@H](O)C(O)C1N[C@H]1C=C(CO)[C@@H](O)[C@H](O)C1O (stereo partly drawn)" assigned_category=inactive
compound=CCCC(=O)Nc1c(I)cc(I)c(C[C@H](CC)C(=O)O)c1I assigned_category=inactive
compound="Cc1cnc(NC(=O)C2C(=O)c3ccccc3S(=O)(=O)N2C)s1 (stereo not drawn)" assigned_category=inactive
compound="C=C1CCC(O)C/C1=C/C=C1\\CCC[C@]2(C)[C@@H]([C@H](C)/C=C/[C@H](C)C(C)C)CC[C@@H]12 (stereo partly drawn)" assigned_category=inactive

----------
# System: CP237
# assay-text: qHTS profiling for inhibitors of Plasmodium falciparum proliferation (AID 504749); note: nearly all actives have a fitted effect of over 60% in size
# experimental-setup: P. falciparum in erythrocytes, SYBR Green DNA, 72 h; series mostly up to 28.7 µM
Inconclusive results are not listed. Calls of active or inactive are those of the source. Calls come from the whole dose curve; as a rule, active = well fitted inhibition curve with a large enough effect; inconclusive = small, poorly fitted or top-dose-only effect; inactive = flat fitted curve, though single readings scatter.
Labels: active, inactive

molecule=CCN(CC)C(=O)[C@@]1(c2ccccc2)C[C@@H]1CN tested_system=CP237 assigned_category=inactive
molecule=CC(C)C[C@@H](NC(=O)[C@@H](Cc1ccccc1)NC(=O)c1cnccn1)B(O)O tested_system=CP237 assigned_category=active
molecule="Nc1nc(/C(=C/CC(=O)O)C(=O)NC2C(=O)N3C(C(=O)O)=CCSC23)cs1 (stereo not drawn)" tested_system=CP237 assigned_category=inactive
molecule=CO/N=C(/C(=O)N[C@@H]1C(=O)N2C(C(=O)O)=C(C[n+]3ccc(N)n3CCO)CS[C@H]12)c1csc(N)n1 tested_system=CP237 assigned_category=inactive
molecule=CCCC[C@H](O)c1ccccc1 tested_system=CP237 assigned_category=inactive
molecule=CC[C@@H]1/C=C(\C)C[C@H](C)C[C@H](OC)[C@H]2O[C@@](O)(C(=O)C(=O)N3CCCC[C@H]3C(=O)O[C@H](/C(C)=C/[C@@H]3CC[C@H](Cl)[C@H](OC)C3)[C@H](C)[C@@H](O)CC1=O)[C@H](C)C[C@@H]2OC tested_system=CP237 assigned_category=inactive
molecule="CC1(C(=O)O)CCC2(C)CCC3(C)C(=CC(=O)C4C5(C)CCC(O)C(C)(C)C5CCC43C)C2C1 (stereo not drawn)" tested_system=CP237 assigned_category=inactive
molecule="C=C1C(n2cnc3c(=O)[nH]c(N)nc32)C[C@H](O)[C@H]1CO (stereo partly drawn)" tested_system=CP237 assigned_category=inactive
